system: recombinant monomeric SARS-CoV-1 S1 protein (SARS-CoV-1, UniProt P59594 14-667)
experiment: flow cytometry, blocking of binding to hACE-2 cells
readout: percent blocking (%)

# binder, unitsLabel, readoutValue
data = [
    ("1035240 (antibody, V domains shown) VH: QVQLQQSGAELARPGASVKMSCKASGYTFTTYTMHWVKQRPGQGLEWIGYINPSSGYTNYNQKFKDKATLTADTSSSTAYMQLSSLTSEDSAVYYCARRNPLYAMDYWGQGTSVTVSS VL: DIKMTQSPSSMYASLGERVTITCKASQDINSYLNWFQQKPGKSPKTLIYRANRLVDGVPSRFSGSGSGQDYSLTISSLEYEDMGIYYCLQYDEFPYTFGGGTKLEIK", "%", 0),
    ("1035755 (antibody, V domains shown) VH: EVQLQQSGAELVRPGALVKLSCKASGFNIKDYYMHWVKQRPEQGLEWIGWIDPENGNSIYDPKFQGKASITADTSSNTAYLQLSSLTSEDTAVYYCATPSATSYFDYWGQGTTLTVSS VL: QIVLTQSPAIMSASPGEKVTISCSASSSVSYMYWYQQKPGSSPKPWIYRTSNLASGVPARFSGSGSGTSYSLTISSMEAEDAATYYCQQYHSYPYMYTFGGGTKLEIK", "%", 1.3),
    ("1035414 (antibody, V domains shown) VH: QVQLKQSGAELVRPGASVKLSCKTSGYIFTSYWIHWVKQRSGQGLEWIARIYPGTGNTYYNEKFKGKATLTADKSSTTAYMQLSSLKSEDSAVYFCARGEDNLYYYAMDYWGQGTSVTVSS VL: NIVLTQSPASLAVSLGQRATISCRASESVDSYGTSFMHWYQQKPGQPPKLLIYLASNLESGVPASFSGSGSRTDFTLTIDPVEADDAATYYCQQNNEDPWTFGGGTKLEIK", "%", 12),
]
